Below: a set of entries, each annotated with reported protein stability index.
B1: TBX5 (parent)
chain: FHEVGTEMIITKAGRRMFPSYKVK

variants of: B1; test: protein stability index of a GFP-peptide fusion (GPS, HEK-293T) (PSI 1-6); higher = more stable; conditions: c terminus: a fixed tail appended;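 further: lentivirally expressed fusions sorted by FACS into six bins by GFP to DsRed ratio, PSI derived from sequencing read proportions per bin multiplied by bin number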

residue_change=R15V test_value=1.72
residue_change=G5I test_value=3.47
residue_change=P19D test_value=2.2

# ---- query variant ----
Query string: Supply reported protein stability index belonging to this variant: E7K
Result string: 1.92
